Reference source for all entries: patent US6413974B1

- Test system: MCF-7
- measurement description: In vitro tumor cell proliferation, MCF-7
- Format: cell-based, human
- conditions: values without *; trihydrochloride; read-out: In vitro Tumor Cell Proliferation (IC50, μM) Breast MCF-7
Structures can show the parent of a compound that is named as a salt.
experimental readout: IC50 (µM)
Quick note: give the figure in µM, leave out the unit.

What does the data say about its IC50? Entry: CC(C)n1cnc2c(NCc3ccccc3)nc(N[C@H]3CC[C@H](N)CC3)nc21 [Example 45, trihydrochloride]
1.7

---

- Test system: PC-3
- measurement description: In vitro tumor cell proliferation, PC-3
- Type: cell-based, human
- conditions: values marked * (mark not explained); dihydrochloride; read-out: In vitro Tumor Cell Proliferation (IC50, μM) Prostate PC-3
Counter-ions that a name gives are not always drawn.
Reported IC50 is given for each of the following compounds.
Quick note: give the figure in µM, leave out the unit.

Some solved entries appear below for comparison.
{"compound": "NCCCCNc1nc(N[C@H]2CC[C@H](N)CC2)nc2c1ncn2C1CCCC1 [Example 5, dihydrochloride]", "value unit": "µM", "reported measurement": 7.2}
{"compound": "CCNc1nc(N[C@H]2CC[C@H](N)CC2)nc2c1ncn2C1CCCC1 [Example 33, dihydrochloride]", "value unit": "µM", "reported measurement": 1}
{"compound": "CCCCCNc1nc(N[C@H]2CC[C@H](N)CC2)nc2c1ncn2C1CCCC1 [Example 26, dihydrochloride]", "value unit": "µM", "reported measurement": 1.4}

What does the data say about its IC50? Entry: CCCNc1nc(N[C@H]2CC[C@H](N)CC2)nc2c1ncn2C1CCCC1 [Example 44, dihydrochloride]
0.47

What does the data say about its IC50? Entry: N[C@H]1CC[C@H](Nc2nc(NCCc3cccnc3)c3ncn(C4CCCC4)c3n2)CC1 [Example 7, dihydrochloride]
4.6

What does the data say about its IC50? Entry: N[C@H]1CC[C@H](Nc2nc(NCCc3ccc(O)cc3)c3ncn(C4CCCC4)c3n2)CC1 [Example 55, dihydrochloride]
4

What does the data say about its IC50? Entry: N[C@H]1CC[C@H](Nc2nc(NCCCO)c3ncn(C4CCCC4)c3n2)CC1 [Example 53, dihydrochloride]
5.9

---

Reported IC50 is given for each of the following molecules.
- Tested on: MDA-MB-231
- measurement description: In vitro tumor cell proliferation, MDA-MB-231
- Assay type: cell-based, human
- conditions: values marked * (mark not explained); dihydrochloride; read-out: In vitro Tumor Cell Proliferation (IC50, μM) Breast MDA-MB-231
Where a name gives a salt, the structure may show the parent alone.
Quick note: give the figure in µM, leave out the unit.

{"molecule": "CCCNc1nc(N[C@H]2CC[C@H](N)CC2)nc2c1ncn2C1CCCC1 [Example 44, dihydrochloride]", "experimental system": "MDA-MB-231", "value unit": "µM", "IC50": 0.6}
{"molecule": "N[C@H]1CC[C@H](Nc2nc(NCCCCCO)c3ncn(C4CCCC4)c3n2)CC1 [Example 25, dihydrochloride]", "experimental system": "MDA-MB-231", "value unit": "µM", "IC50": 5.4}
{"molecule": "N[C@H]1CC[C@H](Nc2nc(NNCCO)c3ncn(C4CCCC4)c3n2)CC1 [Example 14, dihydrochloride]", "experimental system": "MDA-MB-231", "value unit": "µM", "IC50": 22}

Okay, now this molecule:
What does the data say about its IC50? Entry: N[C@H]1CC[C@H](Nc2nc(NCCCCc3ccccc3)c3ncn(C4CCCC4)c3n2)CC1 [Example 21, dihydrochloride]
0.9

---

- experimental system: cdk2/cyclin E (Homo sapiens, UniProt P24941)
- measurement description: Cyclin-Dependent Kinase 2 Assay (cdk-2 inhibition)
- conditions: GST-Rb substrate, 30 min at 30° C.
Counter-ions that a name gives are not always drawn.
experimental readout: pIC50
// scale note: pIC50 = -log10(conc_M); give the bare number

Some solved entries appear below for comparison.
{"molecule": "CCCCCCNc1nc(N[C@H]2CC[C@H](N)CC2)nc2c1ncn2C1CCCC1 [Example 41, dihydrochloride]", "reported measurement": 6.70}
{"molecule": "N[C@H]1CC[C@H](Nc2nc(NCc3ccc(F)cc3)c3ncn(C4CCCC4)c3n2)CC1 [Example 50, dihydrochloride]", "reported measurement": 7.03}

What does the data say about its pIC50? Entry: N[C@H]1CC[C@H](Nc2nc(NCCCc3ccccc3)c3ncn(C4CCCC4)c3n2)CC1 [Example 24, dihydrochloride]
6.89

What does the data say about its pIC50? Entry: N[C@H]1CC[C@H](Nc2nc(NCc3ccccc3F)c3ncn(C4CCCC4)c3n2)CC1 [Example 42, dihydrochloride]
6.38

What does the data say about its pIC50? Entry: N[C@H]1CC[C@H](Nc2nc(NCc3ccco3)c3ncn(C4CCCC4)c3n2)CC1 [Example 38, dihydrochloride]
7.72

What does the data say about its pIC50? Entry: N[C@H]1CC[C@H](Nc2nc(NCCN3CCOCC3)c3ncn(C4CCCC4)c3n2)CC1 [Example 13, trihydrochloride]
6.96

What does the data say about its pIC50? Entry: N[C@H]1CC[C@H](Nc2nc(NCC3CC3)c3ncn(C4CCCC4)c3n2)CC1 [Example 34, dihydrochloride]
7.62

What does the data say about its pIC50? Entry: C[C@@H](Nc1nc(NC2CCC(N)CC2)nc2c1ncn2C1CCCC1)c1ccccc1 (stereo partly drawn) [Example 16, dihydrochloride]
6.14

What does the data say about its pIC50? Entry: CC(C)n1cnc2c(NCc3cccc(I)c3)nc(N[C@H]3CC[C@H](N)CC3)nc21 [Example 51, dihydrochloride]
6.11

What does the data say about its pIC50? Entry: CC(C)n1cnc2c(NCc3cccc(Cl)c3)nc(N[C@H]3CC[C@H](N)CC3)nc21 [Example 15, dihydrochloride]
7.00

What does the data say about its pIC50? Entry: N[C@H]1CC[C@H](Nc2nc(NCCc3ccc4c(c3)OCO4)c3ncn(C4CCCC4)c3n2)CC1 [Example 4, dihydrochloride]
5.29

What does the data say about its pIC50? Entry: N[C@H]1CC[C@H](Nc2nc(NCc3ccc(Cl)cc3)c3ncn(C4CCCC4)c3n2)CC1 [Example 27, dihydrochloride]
6.36

What does the data say about its pIC50? Entry: N[C@H]1CC[C@H](Nc2nc(NCCc3ccc(O)cc3)c3ncn(C4CCCC4)c3n2)CC1 [Example 55, dihydrochloride]
7.05

What does the data say about its pIC50? Entry: N[C@H]1CC[C@H](Nc2nc(NCC(F)(F)F)c3ncn(C4CCCC4)c3n2)CC1 [Example 49, dihydrochloride]
7.05

What does the data say about its pIC50? Entry: N[C@H]1CC[C@H](Nc2nc(NCc3ccncc3)c3ncn(C4CCCC4)c3n2)CC1 [Example 8, dihydrochloride]
6.96

What does the data say about its pIC50? Entry: CC(C)CCNc1nc(N[C@H]2CC[C@H](N)CC2)nc2c1ncn2C1CCCC1 [Example 36, dihydrochloride]
6.92

What does the data say about its pIC50? Entry: N[C@H]1CC[C@H](Nc2nc(NCc3ccc(Cl)c(Cl)c3)c3ncn(C4CCCC4)c3n2)CC1 [Example 10, dihydrochloride]
6.85

What does the data say about its pIC50? Entry: N[C@H]1CC[C@H](Nc2nc(NNCCc3ccccc3)c3ncn(C4CCCC4)c3n2)CC1 [Example 35, dihydrochloride]
6.60

What does the data say about its pIC50? Entry: N[C@H]1CC[C@H](Nc2nc(NCc3ccc(Cl)cc3F)c3ncn(C4CCCC4)c3n2)CC1 [Example 40, dihydrochloride]
6.72

What does the data say about its pIC50? Entry: N[C@H]1CC[C@H](Nc2nc(NCC3CCCCO3)c3ncn(C4CCCC4)c3n2)CC1 (relative stereo) [Example 30, dihydrochloride]
6.90

What does the data say about its pIC50? Entry: CC(CCCC(C)(C)O)Nc1nc(N[C@H]2CC[C@H](N)CC2)nc2c1ncn2C1CCCC1 (relative stereo) [Example 54, dihydrochloride]
7.07

---

- System: HCT-15
- measurement description: In vitro tumor cell proliferation, HCT-15
- Format: cell-based, human
- conditions: Homo sapiens, HCT-15, values without *; read-out: In vitro Tumor Cell Proliferation (IC50, μM) Colon HCT-15
Where a name gives a salt, the structure may show the parent alone.
experimental readout: IC50

Some solved entries appear below for comparison.
{"compound": "N[C@H]1CC[C@H](Nc2nc(NCc3ccccc3)c3ncn(C4CCCC4)c3n2)CC1 [Example 47, dihydrochloride]", "IC50": "5.5 µM"}
{"compound": "N[C@H]1CC[C@H](Nc2nc(NCCCc3ccccc3)c3ncn(C4CCCC4)c3n2)CC1 [Example 24, dihydrochloride]", "IC50": "1.4 µM"}
{"compound": "N[C@H]1CC[C@H](Nc2nc(NCc3ccc(Cl)c(Cl)c3)c3ncn(C4CCCC4)c3n2)CC1 [Example 10, dihydrochloride]", "IC50": "1.9 µM"}
{"compound": "CC(C)n1cnc2c(NCc3ccccc3)nc(N[C@H]3CC[C@H](N)CC3)nc21 [Example 45, trihydrochloride]", "IC50": "16 µM"}
{"compound": "N[C@H]1CC[C@H](Nc2nc(NCc3cccc(Cl)c3)c3ncn(C4CCCC4)c3n2)CC1 [Example 29, dihydrochloride]", "IC50": "3.8 µM"}

Lab note: need IC50 with HCT-15 for entry CC(C)n1cnc2c(NCC3CC3)nc(N[C@H]3CC[C@H](N)CC3)nc21 [Example 32, dihydrochloride] , please look it up.
> 20 µM

Lab note: need IC50 with HCT-15 for entry CC(C)CCNc1nc(N[C@H]2CC[C@H](N)CC2)nc2c1ncn2C1CCCC1 [Example 36, dihydrochloride] , please look it up.
3.1 µM

Lab note: need IC50 with HCT-15 for entry N[C@H]1CC[C@H](Nc2nc(NCC3CC3)c3ncn(C4CCCC4)c3n2)CC1 [Example 34, dihydrochloride] , please look it up.
3.3 µM

Lab note: need IC50 with HCT-15 for entry C[C@@H](Nc1nc(NC2CCC(N)CC2)nc2c1ncn2C1CCCC1)c1ccccc1 (stereo partly shown) [Example 16, dihydrochloride] , please look it up.
9.4 µM

Lab note: need IC50 with HCT-15 for entry N[C@H]1CC[C@H](Nc2nc(NCc3ccc(Cl)cc3Cl)c3ncn(C4CCCC4)c3n2)CC1 [Example 48, dihydrochloride] , please look it up.
3.1 µM
